Molecular target: HLA-A2 molecule (the product of HLA-A*0201 gene) (human)
Listed below: -log Kd values for each entry.

binder	-log Kd
ALHQVFGAI (modifications not checked) [SEQ ID NO 38]	6.77 -log Kd
ELPETLETL (modifications not checked) [SEQ ID NO 9]	6.32 -log Kd
IVLEHGSCV (modifications not checked) [SEQ ID NO 27]	5.74 -log Kd
SLRPQPTEL (modifications not checked) [SEQ ID NO 34]	5.05 -log Kd
ILIRTGLLV (modifications not checked) [SEQ ID NO 33]	6.53 -log Kd
FQPESPSKL (modifications not checked) [SEQ ID NO 36]	6.31 -log Kd
PLNEAIMAV (modifications not checked) [SEQ ID NO 29]	6.49 -log Kd
RLITVNPIV (modifications not checked) [SEQ ID NO 31]	5.64 -log Kd
FLIDGPETA (modifications not checked) [SEQ ID NO 35]	6.05 -log Kd
YMPSVIEKM (modifications not checked) [SEQ ID NO 15]	6.58 -log Kd
ALSELPETL (modifications not checked) [SEQ ID NO 12]	6.05 -log Kd
NLVRLQSGV (modifications not checked) [SEQ ID NO 30]	4.7 -log Kd
